# Tested on: BV-associated bacteria
# Protocol summary: Acid production by BV-associated bacteria in carbohydrate containing gels, slightly aerobic incubation (Experimental Example 1)
# Type: cell-based
# Conditions: Specimen 1; 14 hrs; 1% (w/v) carbohydrate gel, slightly aerobic, 37° C., initial pH 5.4
Below: a set of entries, each annotated with reported pH of the gel.
Answer with a bare number; do not write a unit.

1) OC[C@H]1O[C@H](O[C@H]2[C@H](O)[C@@H](O)C(O)O[C@@H]2CO)[C@H](O)[C@@H](O)[C@@H]1O (mixture of isomers) [Maltose, maltose]
3.8

// moving on: another record for pH of the gel
Identify the reported pH of the gel for the following entry. OC[C@H]1O[C@H](OC[C@H]2OC(O)[C@H](O)[C@@H](O)[C@@H]2O)[C@H](O)[C@@H](O)[C@@H]1O (stereo partly shown) [Isomaltose, isomaltose] 3.8
